# target or test system: human CD73 (Homo sapiens, UniProt P21589)
# Sequence (P21589 27-549): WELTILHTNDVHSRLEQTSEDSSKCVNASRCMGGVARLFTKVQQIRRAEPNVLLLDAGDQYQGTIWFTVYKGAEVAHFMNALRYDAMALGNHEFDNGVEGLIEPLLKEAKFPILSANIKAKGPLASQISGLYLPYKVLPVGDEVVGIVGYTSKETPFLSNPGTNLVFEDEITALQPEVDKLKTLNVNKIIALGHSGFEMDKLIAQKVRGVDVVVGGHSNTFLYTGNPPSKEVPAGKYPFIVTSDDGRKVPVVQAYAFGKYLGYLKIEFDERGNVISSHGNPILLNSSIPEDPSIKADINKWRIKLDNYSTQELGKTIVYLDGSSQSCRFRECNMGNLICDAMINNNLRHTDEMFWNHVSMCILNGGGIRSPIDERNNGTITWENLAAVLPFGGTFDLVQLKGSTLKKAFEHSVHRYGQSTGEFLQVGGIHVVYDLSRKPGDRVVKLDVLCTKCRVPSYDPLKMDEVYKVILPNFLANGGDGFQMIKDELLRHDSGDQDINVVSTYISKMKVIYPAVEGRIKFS
# measurement notes: Inhibition of ecto-5′-nucleotidase (CD73) activity in CHO-CD73 cells, phosphate colorimetric readout
# condition summary: CHO-K1 cells stably transfected with human CD73, 2500 cells per well, 25 μM AMP substrate, 50 minutes incubation at 37° C.; read-out: Potency: CD73 IC50

| compound | IC50 |
| --- | --- |
| O=P(O)(O)CP(=O)(O)OC[C@H]1O[C@@H](n2cnc3c(N[C@@H]4CCOC4)nc(Cl)nc32)[C@@H](F)[C@@H]1O | < 100 nM |
| Cc1nc(NCc2ccccc2)c2ncn([C@@H]3O[C@H](COP(=O)(O)CP(=O)(O)O)[C@@H](O)[C@@H]3F)c2n1 | < 100 nM |
| CN(Cc1ccccc1)c1nc(Cl)nc2c1ncn2[C@@H]1O[C@H](COP(=O)(O)CP(=O)(O)O)[C@@H](O)[C@@H]1F | < 100 nM |
| C[C@@H](Nc1nc(Cl)nc2c1cnn2[C@@H]1O[C@H](COP(=O)(O)CP(=O)(O)O)[C@@H](O)[C@H]1O)c1ccccc1 | < 100 nM |
| C[C@H](Nc1nc(Cl)nc2c1cnn2[C@@H]1O[C@H](COP(=O)(O)CP(=O)(O)O)[C@@H](O)[C@H]1O)c1cccc(F)c1 | < 100 nM |
| O=P(O)(O)CP(=O)(O)OC[C@H]1O[C@@H](n2cnc3c(NCc4ccc(-c5ccccc5)cc4)ncnc32)[C@H](O)[C@@H]1O | < 100 nM |
| O=P(O)(O)CP(=O)(O)OC[C@H]1O[C@@H](n2cnc3c(NC4CCCC4)nc(C(F)(F)F)nc32)[C@@H](F)[C@@H]1O | < 100 nM |
| CNc1nc(Cl)nc2c1cnn2[C@@H]1O[C@H](COP(=O)(O)CP(=O)(O)O)[C@@H](O)[C@H]1O | < 100 nM |
| COP(=O)(CP(=O)(O)O)OC[C@H]1O[C@@H](n2cnc3c(N(C)C4CCCC4)nc(Cl)nc32)[C@@H](F)[C@@H]1O (stereo partly shown) | < 100 nM |
| CCC(OP(=O)(O)CP(=O)(O)O)[C@H]1O[C@@H](n2cnc3c(NCc4ccccc4)nc(Cl)nc32)[C@H](O)[C@@H]1O (stereo partly shown) | < 100 nM |
| CC(C)Nc1nc(Cl)nc2c1ncn2[C@@H]1O[C@H](COP(=O)(O)CP(=O)(O)O)[C@@H](O)[C@H]1O | < 100 nM |
| O=P(O)(O)CP(=O)(O)OC[C@H]1O[C@@H](n2ncc3c(N[C@H]4CCOC4)nc(Cl)nc32)[C@H](O)[C@@H]1O | < 100 nM |
| C[C@@H](Nc1cc(Cl)nc2c1cnn2[C@@H]1O[C@H](COP(=O)(O)CP(=O)(O)O)[C@@H](O)[C@H]1O)c1ccccc1 | < 100 nM |
| C[C@H](Nc1nc(Cl)nc2c1cnn2[C@@H]1O[C@H](COP(=O)(O)CP(=O)(O)O)[C@@H](O)[C@H]1O)c1ccccc1 | < 100 nM |
| O=P(O)(O)CP(=O)(O)OC[C@H]1O[C@@H](n2cnc3c(NCc4ccc(Br)cc4)ncnc32)[C@H](O)[C@@H]1O | < 100 nM |
| CCc1nc(NCc2ccccc2)c2ncn([C@@H]3O[C@H](COP(=O)(O)CP(=O)(O)O)[C@@H](O)[C@H]3O)c2n1 | < 100 nM |
| O=P(O)(O)CP(=O)(O)OC[C@H]1O[C@@H](n2cnc3c(NCc4ccc(F)cc4)nc(Cl)nc32)[C@@H](F)[C@@H]1O | < 100 nM |
| CNc1nc(NCc2ccccc2)c2ncn([C@@H]3O[C@H](COP(=O)(O)CP(=O)(O)O)[C@@H](O)[C@H]3O)c2n1 | < 100 nM |
| Cc1cccc(CNc2nc(Cl)nc3c2ncn3[C@@H]2O[C@H](COP(=O)(O)CP(=O)(O)O)[C@@H](O)[C@@H]2F)c1 | < 100 nM |
| O=P(O)(O)CP(=O)(O)OC[C@H]1O[C@@H](n2cnc3c(NCCc4ccccc4)nc(Cl)nc32)[C@@H](F)[C@@H]1O | < 100 nM |
| CCCc1nc(NCc2ccccc2)c2ncn([C@@H]3O[C@H](COP(=O)(O)CP(=O)(O)O)[C@@H](O)[C@H]3O)c2n1 | < 100 nM |
| COC(=O)c1ccccc1OP(=O)(CP(=O)(Oc1ccccc1C(=O)OC)Oc1ccccc1C(=O)OC)OC[C@H]1O[C@@H](n2cnc3c(N(C)C4CCCC4)nc(Cl)nc32)[C@H](O)[C@@H]1O (stereo partly shown) | > 1000 nM |
| O=P(O)(O)CP(=O)(O)OC[C@H]1O[C@@H](n2cnc3c(N4CCCC4)nc(Cl)nc32)[C@@H](F)[C@@H]1O | < 100 nM |
| C[C@H](Nc1cc(Cl)nc2c1cnn2[C@@H]1O[C@H](COP(=O)(O)CP(=O)(O)O)[C@@H](O)[C@H]1O)c1ccc(F)cc1 | < 100 nM |
| C[C@H](Nc1cc(Cl)nc2c1cnn2[C@@H]1O[C@H](COP(=O)(O)CP(=O)(O)O)[C@@H](O)[C@H]1O)c1ccccc1 | < 100 nM |
| O=P(O)(O)CP(=O)(O)OC[C@H]1O[C@@H](n2cnc3c(NC4CCCC4)nc(CN4CCCCC4)nc32)[C@@H](F)[C@@H]1O | 100 to 1000 nM |
| CC(C)Sc1nc(NCc2ccccc2)c2ncn([C@@H]3O[C@H](COP(=O)(O)CP(=O)(O)O)[C@@H](O)[C@H]3O)c2n1 | < 100 nM |
| CN(c1nc(Cl)nc2c1ncn2[C@@H]1O[C@H](COP(=O)(CP(=O)(Oc2cccc(Cl)c2)Oc2cccc(Cl)c2)Oc2cccc(Cl)c2)[C@@H](O)[C@H]1O)C1CCCC1 (stereo partly shown) | > 1000 nM |
